The measured values listed here are drawn from ChEMBL document CHEMBL4689842.

Test system: U2OS
EXPERIMENTAL_PROTOCOL: Multiplex assay against U2OS
Assay type: toxicity, cell-based
CONDITION_CONTEXT: human, 12 h, 10 µM, compound concentration 10 uM, replicate 1
Binary label based on Population Apoptotic (%) with cut-off 50%: below gives t, not below gives f.

Incoming: Strictly below 50%: is that where Population Apoptotic (%) of CC(C)NCC(O)COc1ccc(CCOCC2CC2)cc1.Cl (configuration not stated) [BETAXOLOL HYDROCHLORIDE] sits?
Outgoing: f

Incoming: Strictly below 50%: is that where Population Apoptotic (%) of COc1cc(-n2cnc3cc(-c4ccc(Cl)cc4)sc3c2=O)ccc1OCCN1CCCC1 sits?
Outgoing: f

Incoming: Strictly below 50%: is that where Population Apoptotic (%) of Cc1nc(-c2ccc(-c3ccc(C(=O)N4CCc5cc6c(cc54)C4(CCN(C)CC4)CO6)cc3)c(C)c2)no1 sits?
Outgoing: f

Incoming: Strictly below 50%: is that where Population Apoptotic (%) of CC[C@H](C)C(=O)O[C@H]1C[C@@H](C)C=C2C=C[C@H](C)[C@H](CC[C@@H]3C[C@@H](O)CC(=O)O3)[C@H]21 sits?
Outgoing: t

Incoming: Strictly below 50%: is that where Population Apoptotic (%) of CN1CCCC(n2nc(Cc3ccc(Cl)cc3)c3ccccc3c2=O)CC1.Cl (configuration not stated) [AZELASTINE HYDROCHLORIDE] sits?
Outgoing: f

Incoming: Strictly below 50%: is that where Population Apoptotic (%) of Cl.N#Cc1ccc2[nH]cc(CCCCN3CCN(c4ccc5oc(C(N)=O)cc5c4)CC3)c2c1 [VILAZODONE HYDROCHLORIDE] sits?
Outgoing: t

Incoming: Strictly below 50%: is that where Population Apoptotic (%) of Cc1[nH]c(/C=C2\C(=O)Nc3ccc(S(=O)(=O)N(C)c4cccc(Cl)c4)cc32)c(C)c1C(=O)N1CCN(C)CC1 sits?
Outgoing: f

Incoming: Strictly below 50%: is that where Population Apoptotic (%) of COc1cccc([C@@H](C)NCCCc2ccccc2Cl)c1.Cl [TECALCET HYDROCHLORIDE] sits?
Outgoing: f

Incoming: Strictly below 50%: is that where Population Apoptotic (%) of CN(C)C(=O)/C(C#N)=C/c1ccc(-c2nc3cnc4[nH]ccc4c3n2C2CCCCC2)o1 sits?
Outgoing: t

Incoming: Strictly below 50%: is that where Population Apoptotic (%) of OC1(c2ccc(Cl)cc2)CCN(Cc2c[nH]c3ccccc23)CC1 sits?
Outgoing: f

Incoming: Strictly below 50%: is that where Population Apoptotic (%) of Cn1cc(-c2[nH]c3cc(NC(=O)[C@H](N)C4CCCCC4)cc4c3c2C=NNC4=O)cn1 sits?
Outgoing: t

Incoming: Strictly below 50%: is that where Population Apoptotic (%) of Cc1cc(C)cc(-c2cnc3cc(Cl)c(-c4cccc(O)c4)cc3c2OCCCN)c1 sits?
Outgoing: f

Incoming: Strictly below 50%: is that where Population Apoptotic (%) of Cc1c(-c2ccc(O)cc2)n(Cc2ccc(OCCN3CCCCCC3)cc2)c2ccc(O)cc12 sits?
Outgoing: t

Incoming: Strictly below 50%: is that where Population Apoptotic (%) of C[C@@H](NCCCc1cccc(C(F)(F)F)c1)c1cccc2ccccc12.Cl [CINACALCET HYDROCHLORIDE] sits?
Outgoing: t

Incoming: Strictly below 50%: is that where Population Apoptotic (%) of CN1CCN(c2ccc(OC(F)(F)F)c(Nc3ncc4c(n3)-c3c(c(C(N)=O)nn3CCO)CC4)c2)CC1 sits?
Outgoing: f

Incoming: Strictly below 50%: is that where Population Apoptotic (%) of COc1cc2nccc(Oc3ccc(NC(=O)Nc4cc(C)on4)c(Cl)c3)c2cc1OC.O sits?
Outgoing: f
